Below, each entry is listed with its recorded Bliss excess.
- System: DU-145 (Prostate Carcinoma)
- protocol: Bliss excess, mean over the matrix (fraction); higher = more synergy

molecule | Bliss excess
Cc1cc2ncnn2cc1Nc1ncc2c(n1)n(C1CCOCC1)c(=O)n2C [AZD7648] + CN(C)CCCOc1ccc(-c2ccc3ncc4c(c3c2)n(C2CCOCC2)c(=O)n4C)cn1 [AZD0156] (first compound max 10 µM, 7x7, partner max 1 µM) | -0.0142
CC1(C)CCC(CN2CCN(c3ccc(C(=O)NS(=O)(=O)c4ccc(NCC5CCOCC5)c([N+](=O)[O-])c4)c(Oc4cnc5[nH]ccc5c4)c3)CC2)=C(c2ccc(Cl)cc2)C1 [Venetoclax] + Cn1cnc2c(F)c(Nc3ccc(Br)cc3Cl)c(C(=O)NOCCO)cc21 [Selumetinib] (first compound max 1 µM, 7x7, partner max 3 µM) | -0.0121
CCc1c2c(nc3ccc(O)cc13)-c1cc3c(c(=O)n1C2)COC(=O)[C@]3(O)CC [SN-38] + O=C(c1cc(Cc2n[nH]c(=O)c3ccccc23)ccc1F)N1CCN(C(=O)C2CC2)CC1 [Olaparib] (first compound max 0.3 µM, 7x7, partner max 10 µM) | 0.0282
Cc1cc2ncnn2cc1Nc1ncc2c(n1)n(C1CCOCC1)c(=O)n2C [AZD7648] + CCN(CCO)CCCOc1ccc2c(Nc3cc(CC(=O)Nc4cccc(F)c4)[nH]n3)ncnc2c1 [AZD2811] (first compound max 10 µM, 7x7, partner max 1 µM) | -0.0078
Cc1c2c(nn1C)CSCc1cc(n(C)n1)CSc1cc(c3ccccc3c1)OCCCc1c(C(=O)O)n(C)c3c-2c(Cl)ccc13 [AZD5991] + CCN(CCO)CCCOc1ccc2c(Nc3cc(CC(=O)Nc4cccc(F)c4)[nH]n3)ncnc2c1 [AZD2811] (first compound max 1 µM, 7x7, partner max 1 µM) | -0.0282
C[C@@H](c1ccc2nccn2c1)n1nnc2ncc(-c3cnn(C)c3)nc21 [Savolitinib] + Cc1c2c(nn1C)CSCc1cc(n(C)n1)CSc1cc(c3ccccc3c1)OCCCc1c(C(=O)O)n(C)c3c-2c(Cl)ccc13 [AZD5991] (first compound max 1 µM, 7x7, partner max 1 µM) | -0.0361
COc1cc2c(cc1OCCCCCOc1cc3c(cc1OC)C(=O)N1C=C(C)C[C@H]1C=N3)N=C[C@@H]1CC(C)=CN1C2=O [SG3199] + O=C(c1cc(Cc2n[nH]c(=O)c3ccccc23)ccc1F)N1CCN(C(=O)C2CC2)CC1 [Olaparib] (first compound max 0.001 µM, 7x7, partner max 10 µM) | -0.0361
CN(CCO)CC[C@H](CSc1ccccc1)Nc1ccc(S(=O)(=O)NC(=O)c2ccc(N3CCC([C@@H](O)c4ccccc4-c4ccc(Cl)cc4)CC3)cc2)cc1S(=O)(=O)C(F)(F)F [AZD4320] + C1CN(CCC1(C(=O)N[C@@H](CCO)C2=CC=C(C=C2)Cl)N)C3=NC=NC4=C3C=CN4 [Capivasertib] (first compound max 1 µM, 7x7, partner max 3 µM) | -0.0342
Cn1cnc2c(F)c(Nc3ccc(Br)cc3Cl)c(C(=O)NOCCO)cc21 [Selumetinib] + C=CCn1c(=O)c2cnc(Nc3ccc(N4CCN(C)CC4)cc3)nc2n1-c1cccc(C(C)(C)O)n1 [AZD1775] (first compound max 10 µM, partner max 1 µM) | 0.0039

###

Overview of reported Bliss excess across a group of compounds:
- Tested on: SNU-387 (Hepatocellular Carcinoma)
- protocol: Bliss excess, mean over the matrix (fraction); higher = more synergy

compound | Bliss excess
CN(CCO)CC[C@H](CSc1ccccc1)Nc1ccc(S(=O)(=O)NC(=O)c2ccc(N3CCC([C@@H](O)c4ccccc4-c4ccc(Cl)cc4)CC3)cc2)cc1S(=O)(=O)C(F)(F)F [AZD4320] + CN(C)CCCOc1ccc(-c2ccc3ncc4c(c3c2)n(C2CCOCC2)c(=O)n4C)cn1 [AZD0156] (first compound max 1 µM, 7x7, partner max 1 µM) | -0.0208
CCc1c2c(nc3ccc(O)cc13)-c1cc3c(c(=O)n1C2)COC(=O)[C@]3(O)CC [SN-38] + O=C(c1cc(Cc2n[nH]c(=O)c3ccccc23)ccc1F)N1CCN(C(=O)C2CC2)CC1 [Olaparib] (first compound max 0.3 µM, 7x7, partner max 10 µM) | -0.0372
Cc1cc2ncnn2cc1Nc1ncc2c(n1)n(C1CCOCC1)c(=O)n2C [AZD7648] + C=CCn1c(=O)c2cnc(Nc3ccc(N4CCN(C)CC4)cc3)nc2n1-c1cccc(C(C)(C)O)n1 [AZD1775] (first compound max 10 µM, partner max 1 µM) | -0.123
Cc1c2c(nn1C)CSCc1cc(n(C)n1)CSc1cc(c3ccccc3c1)OCCCc1c(C(=O)O)n(C)c3c-2c(Cl)ccc13 [AZD5991] + C1CN(CCC1(C(=O)N[C@@H](CCO)C2=CC=C(C=C2)Cl)N)C3=NC=NC4=C3C=CN4 [Capivasertib] (first compound max 1 µM, 7x7, partner max 3 µM) | 0.0124
COc1nnc2ccc(N3CCC(c4ccc(OCCN5CCN(C)C(=O)[C@H]5C)cc4)CC3)nn12 [AZD5153] + Cn1cnc2c(F)c(Nc3ccc(Br)cc3Cl)c(C(=O)NOCCO)cc21 [Selumetinib] (first compound max 1 µM, 7x7, partner max 10 µM) | 0.0012
C[C@@H]1COCCN1c1cc(C2([S@](C)(=N)=O)CC2)nc(-c2ccnc3[nH]ccc23)n1 [AZD6738] + Nc1ccn([C@@H]2O[C@H](CO)[C@@H](O)C2(F)F)c(=O)n1 [Gemcitabine] (first compound max 10 µM, 7x7, partner max 0.3 µM) | 0.0597
CC1(C)CCC(CN2CCN(c3ccc(C(=O)NS(=O)(=O)c4ccc(NCC5CCOCC5)c([N+](=O)[O-])c4)c(Oc4cnc5[nH]ccc5c4)c3)CC2)=C(c2ccc(Cl)cc2)C1 [Venetoclax] + C[C@@H](Nc1cc(F)cc(F)c1)c1cc(C(=O)N(C)C)cc2c(=O)cc(N3CCOCC3)oc12 [AZD8186] (first compound max 1 µM, 7x7, partner max 3 µM) | -0.0264

###

- Test system: EFO-21 (Ovarian Carcinoma)
- protocol: Bliss excess, mean over the matrix (fraction); higher = more synergy

compound | Bliss excess
CC1(C)CCC(CN2CCN(c3ccc(C(=O)NS(=O)(=O)c4ccc(NCC5CCOCC5)c([N+](=O)[O-])c4)c(Oc4cnc5[nH]ccc5c4)c3)CC2)=C(c2ccc(Cl)cc2)C1 [Venetoclax] + CN(C)CCCOc1ccc(-c2ccc3ncc4c(c3c2)n(C2CCOCC2)c(=O)n4C)cn1 [AZD0156] (first compound max 1 µM, 7x7, partner max 1 µM) | -0.0375
CS(=O)(=O)CCNCc1ccc(-c2ccc3ncnc(Nc4ccc(OCc5cccc(F)c5)c(Cl)c4)c3c2)o1 [Lapatinib] + NC1(c2ccc(-c3nc4ccn5c(=O)[nH]nc5c4cc3-c3ccccc3)cc2)CCC1 [MK-2206] (first compound max 10 µM, 7x7, partner max 10 µM) | 0.0024
COc1cc2c(cc1OCCCCCOc1cc3c(cc1OC)C(=O)N1C=C(C)C[C@H]1C=N3)N=C[C@@H]1CC(C)=CN1C2=O [SG3199] + O=C(c1cc(Cc2n[nH]c(=O)c3ccccc23)ccc1F)N1CCN(C(=O)C2CC2)CC1 [Olaparib] (first compound max 0.001 µM, 7x7, partner max 10 µM) | -0.0709

###

- System: MOLT-4 (T-Lymphoblastic Leukemia)
- protocol: combination Emax (second highest fraction inhibited in the dose matrix, 72 h); higher = more inhibition; extreme values may be limits of the assay
quantityKind: combination Emax

compound | recordedValue
CC(=O)Nc1cccc(-n2c(=O)n(C3CC3)c(=O)c3c(Nc4ccc(I)cc4F)n(C)c(=O)c(C)c32)c1 [Trametinib] + Cc1nc(-c2cn3c(n2)-c2ccc(-c4cnn(C(C)(C)C(N)=O)c4)cc2OCC3)n(C(C)C)n1 [Taselisib] (first compound max 1 µM, 7x7, partner max 10 µM) | 0.859
COc1cccc(OCCCN)c1-c1cc(Nc2cnc(C#N)cn2)n[nH]1 [Prexasertib] + CN(C)CCCOc1ccc(-c2ccc3ncc4c(c3c2)n(C2CCOCC2)c(=O)n4C)cn1 [AZD0156] (first compound max 1 µM, 7x7, partner max 1 µM) | 1
COc1cccc2c1C(=O)c1c(O)c3c(c(O)c1C2=O)C[C@@](O)(C(=O)CO)C[C@@H]3O[C@H]1C[C@H](N)[C@H](O)[C@H](C)O1 [Doxorubicin] + Cc1cc2ncnn2cc1Nc1ncc2c(n1)n(C1CCOCC1)c(=O)n2C [AZD7648] (first compound max 1 µM, 7x7, partner max 10 µM) | 1
Cc1cc2ncnn2cc1Nc1ncc2c(n1)n(C1CCOCC1)c(=O)n2C [AZD7648] + CN(C)CCCOc1ccc(-c2ccc3ncc4c(c3c2)n(C2CCOCC2)c(=O)n4C)cn1 [AZD0156] (first compound max 10 µM, 7x7, partner max 1 µM) | 0.246
Cn1cnc2c(F)c(Nc3ccc(Br)cc3Cl)c(C(=O)NOCCO)cc21 [Selumetinib] + CCN(CCO)CCCOc1ccc2c(Nc3cc(CC(=O)Nc4cccc(F)c4)[nH]n3)ncnc2c1 [AZD2811] (first compound max 10 µM, 7x7, partner max 1 µM) | 0.992
Cc1c2c(nn1C)CSCc1cc(n(C)n1)CSc1cc(c3ccccc3c1)OCCCc1c(C(=O)O)n(C)c3c-2c(Cl)ccc13 [AZD5991] + C[C@@H](Nc1cc(F)cc(F)c1)c1cc(C(=O)N(C)C)cc2c(=O)cc(N3CCOCC3)oc12 [AZD8186] (first compound max 1 µM, 7x7, partner max 3 µM) | 0.526
COc1nnc2ccc(N3CCC(c4ccc(OCCN5CCN(C)C(=O)[C@H]5C)cc4)CC3)nn12 [AZD5153] + CCN(CCO)CCCOc1ccc2c(Nc3cc(CC(=O)Nc4cccc(F)c4)[nH]n3)ncnc2c1 [AZD2811] (first compound max 1 µM, 7x7, partner max 1 µM) | 1
C=CCn1c(=O)c2cnc(Nc3ccc(N4CCN(C)CC4)cc3)nc2n1-c1cccc(C(C)(C)O)n1 [AZD1775] + Nc1ccn([C@@H]2O[C@H](CO)[C@@H](O)C2(F)F)c(=O)n1 [Gemcitabine] (first compound max 1 µM, partner max 0.3 µM) | 1
COc1cc2ncnc(Nc3ccc(F)c(Cl)c3)c2cc1OCCCN1CCOCC1 [Gefitinib] + CC(C)n1c(=O)n(C)c2cnc3cc(F)c(-c4ccc(OCCCN5CCCCC5)nc4)cc3c21 [AZD1390] (first compound max 10 µM, 7x7, partner max 0.3 µM) | 0.373
CCN(CCO)CCCOc1ccc2c(Nc3cc(CC(=O)Nc4cccc(F)c4)[nH]n3)ncnc2c1 [AZD2811] + C=CCn1c(=O)c2cnc(Nc3ccc(N4CCN(C)CC4)cc3)nc2n1-c1cccc(C(C)(C)O)n1 [AZD1775] (first compound max 1 µM, partner max 1 µM) | 1
NC1(C(=O)N[C@@H](CCO)c2ccc(Cl)cc2)CCN(c2ncnc3[nH]ccc23)CC1 [Capivasertib] + Cn1cnc2c(F)c(Nc3ccc(Br)cc3Cl)c(C(=O)NOCCO)cc21 [Selumetinib] (first compound max 10 µM, 7x7, partner max 10 µM) | 0.758
Cc1cc2ncnn2cc1Nc1ncc2c(n1)n(C1CCOCC1)c(=O)n2C [AZD7648] + COc1cc([C@@H]2c3cc4c(cc3[C@@H](O[C@@H]3O[C@@H]5CO[C@@H](C)O[C@H]5[C@H](O)[C@H]3O)[C@H]3COC(=O)[C@H]23)OCO4)cc(OC)c1O [Etoposide] (first compound max 10 µM, 7x7, partner max 10 µM) | 1
CN(CCO)CC[C@H](CSc1ccccc1)Nc1ccc(S(=O)(=O)NC(=O)c2ccc(N3CCC([C@@H](O)c4ccccc4-c4ccc(Cl)cc4)CC3)cc2)cc1S(=O)(=O)C(F)(F)F [AZD4320] + CC(=O)O[C@H]1C(=O)[C@@]2(C)[C@H]([C@H](OC(=O)c3ccccc3)[C@]3(O)C[C@H](OC(=O)[C@H](O)[C@@H](NC(=O)c4ccccc4)c4ccccc4)C(C)=C1C3(C)C)[C@]1(OC(C)=O)CO[C@@H]1C[C@@H]2O [Paclitaxel] (first compound max 1 µM, 7x7, partner max 3 µM) | 1
